List of IC50 values.
molecular target: recombinant human SAE enzyme (Homo sapiens (Human)); test: SAE HTRF enzyme assay; assay type: biochemical; conditions: class symbols A/B/C

# Molecule, IC50
rows = [
    ("Cc1sc(C(=O)c2cncnc2N[C@@H]2C[C@H](COS(N)(=O)=O)[C@@H](O)C2)cc1[C@H](C)c1cccc(Cl)c1 (mixture of isomers) [I-135]", "10 to 100 nM"),
    ("Cc1sc(C(=O)c2cncnc2N[C@@H]2C[C@H](COS(N)(=O)=O)[C@@H](O)C2)cc1[C@H](C)c1cccc(Cl)c1 (single isomer, unassigned) [I-135b]", "< 10 nM"),
    ("Cc1sc(C(=O)c2cncnc2N[C@@H]2C[C@H](COS(N)(=O)=O)[C@@H](O)C2)cc1[C@H]1NCCc2ccc(Br)cc21 (single isomer, unassigned) [I-248a]", "< 10 nM"),
    ("Cc1oc(C(=O)c2cncnc2N[C@@H]2C[C@H](COS(N)(=O)=O)[C@@H](O)C2)cc1[C@@H]1OCCc2ccc(Cl)cc21 (mixture of isomers) [I-270]", "< 10 nM"),
    ("C[C@](O)(c1csc(C(=O)c2cncnc2N[C@@H]2C[C@H](COS(N)(=O)=O)[C@@H](O)[C@H]2O)c1)c1cccc(Br)n1 (single isomer, unassigned) [I-1a]", "< 10 nM"),
    ("NS(=O)(=O)OC[C@H]1C[C@@H](Nc2ncncc2C(=O)c2cc(COc3ccccc3Cl)cs2)C[C@@H]1O", "< 10 nM"),
]

----------
Entries annotated with measured Percent Inhibition
target: recombinant human SAE enzyme (Homo sapiens (Human), UniProt Q9UBT2); test: SAE HTRF enzyme assay; assay type: biochemical; conditions: Concentration 0.111 μM
Sequence (Q9UBT2 whole entry): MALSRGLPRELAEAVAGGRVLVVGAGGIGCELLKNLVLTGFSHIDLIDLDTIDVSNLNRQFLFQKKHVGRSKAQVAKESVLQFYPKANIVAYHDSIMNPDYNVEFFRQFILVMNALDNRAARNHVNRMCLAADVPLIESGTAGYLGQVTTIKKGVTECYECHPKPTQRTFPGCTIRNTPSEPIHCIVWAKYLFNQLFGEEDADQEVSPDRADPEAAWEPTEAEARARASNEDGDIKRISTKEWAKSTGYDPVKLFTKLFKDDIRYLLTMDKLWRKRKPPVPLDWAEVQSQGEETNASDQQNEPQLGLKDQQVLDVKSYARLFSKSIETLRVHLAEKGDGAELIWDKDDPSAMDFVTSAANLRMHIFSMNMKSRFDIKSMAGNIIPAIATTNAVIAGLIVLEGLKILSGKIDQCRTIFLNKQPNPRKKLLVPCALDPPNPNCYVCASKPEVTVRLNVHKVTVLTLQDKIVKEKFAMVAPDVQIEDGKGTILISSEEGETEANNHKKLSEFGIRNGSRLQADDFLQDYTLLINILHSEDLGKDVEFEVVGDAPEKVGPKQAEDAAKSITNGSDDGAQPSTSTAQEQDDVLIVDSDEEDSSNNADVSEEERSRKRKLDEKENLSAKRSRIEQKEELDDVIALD
Sequence (Q9UBE0 whole entry partner): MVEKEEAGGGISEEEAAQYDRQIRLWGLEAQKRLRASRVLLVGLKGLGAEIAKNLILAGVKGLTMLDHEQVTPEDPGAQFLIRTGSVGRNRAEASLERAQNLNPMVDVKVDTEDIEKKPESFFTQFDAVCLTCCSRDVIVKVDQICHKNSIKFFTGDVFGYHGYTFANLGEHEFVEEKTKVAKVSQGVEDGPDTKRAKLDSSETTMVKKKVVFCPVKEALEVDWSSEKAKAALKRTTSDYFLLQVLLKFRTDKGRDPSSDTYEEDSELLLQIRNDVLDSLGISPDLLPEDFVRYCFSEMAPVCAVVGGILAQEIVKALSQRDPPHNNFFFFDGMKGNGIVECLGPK
Measured Endpoint: Percent Inhibition

# Compound, Reported Result
measured = [
    ("NS(=O)(=O)OC[C@H]1C[C@@H](Nc2ncncc2C(=O)c2cc(COc3ccccc3I)cs2)C[C@@H]1O [I-161]", 91),
    ("NS(=O)(=O)OC[C@H]1C[C@@H](Nc2ncncc2C(=O)c2cc([C@H](O)c3ccccc3)c(Cl)s2)C[C@@H]1O (mixture of isomers) [I-56]", 98),
    ("N[C@@H](c1cccc(Cl)c1)c1cc(C(=O)c2cncnc2N[C@@H]2C[C@H](COS(N)(=O)=O)[C@@H](O)[C@H]2O)sc1Cl (single isomer, unassigned) [I-14a]", 101),
    ("N[C@H](c1cccc(Br)c1)c1cc(C(=O)c2cncnc2N[C@@H]2C[C@H](COS(N)(=O)=O)[C@@H](O)C2)sc1Cl (single isomer, unassigned) [I-22b]", 99),
    ("NS(=O)(=O)OC[C@H]1C[C@@H](Nc2ncncc2C(=O)c2cc(Cc3cccc(Cl)c3)c([C@@H]3CCCO3)s2)C[C@@H]1O (mixture of isomers) [I-41]", 99),
    ("NS(=O)(=O)OC[C@H]1C[C@@H](Nc2ncncc2C(=O)c2cc(C3OCCc4ccc(Cl)cc43)cs2)C[C@@H]1O (single isomer, unassigned) [I-261a]", 76),
    ("CC(O)(c1cccc(Cl)c1)c1csc(C(=O)c2cncnc2N[C@@H]2C[C@H](COS(N)(=O)=O)[C@@H](O)C2)c1 (single isomer, unassigned) [I-5b]", 100),
    ("C#Cc1ccc2c(c1)[C@H](c1cc(C(=O)c3cncnc3N[C@@H]3C[C@H](COS(N)(=O)=O)[C@@H](O)C3)sc1C)OCC2 (single isomer, unassigned) [I-252a]", 71),
    ("Cc1sc(C(=O)c2cncnc2N[C@@H]2C[C@H](COS(N)(=O)=O)[C@@H](O)C2)cc1[C@H](O)c1cccc(Cl)c1 (single isomer, unassigned) [I-11b]", 99),
    ("C[C@](O)(c1ccccc1)c1coc(C(=O)c2cncnc2N[C@@H]2C[C@H](COS(N)(=O)=O)[C@@H](O)C2)c1 (single isomer, unassigned) [I-58a]", 87),
    ("Cc1oc(C(=O)c2cncnc2N[C@@H]2C[C@H](COS(N)(=O)=O)[C@@H](O)C2)cc1[C@@H]1OCCc2ccc(Cl)cc21 (mixture of isomers) [I-270]", 99),
]

----------
target: recombinant human SAE enzyme (Homo sapiens (Human), UniProt Q9UBT2); experiment: SAE HTRF enzyme assay; assay type: biochemical; details: SAE inhibition; class symbols, legend in nM

# Molecule, IC50
rows = [
    ("CN1Cc2ccc(Cl)cc2[C@@H]1c1cc(C(=O)c2cncnc2N[C@@H]2C[C@H](COS(N)(=O)=O)[C@@H](O)C2)sc1Cl (single isomer, unassigned) [I-284a]", "100 to 1000 nM"),
    ("Cc1sc(C(=O)c2cncnc2N[C@@H]2C[C@H](COS(N)(=O)=O)[C@@H](O)C2)cc1[C@H]1OCCc2ccc(N3CCCC3)nc21 (mixture of isomers)", "< 10 nM"),
    ("CN1Cc2ccc(Cl)cc2[C@@H]1c1cc(C(=O)c2cncnc2N[C@@H]2C[C@H](COS(N)(=O)=O)[C@@H](O)C2)sc1Cl (single isomer, unassigned) [I-284b]", "< 10 nM"),
    ("Cc1sc(C(=O)c2cncnc2N[C@@H]2C[C@H](COS(N)(=O)=O)[C@@H](O)C2)cc1[C@H]1NCCc2ccccc21 (single isomer, unassigned) [I-292b]", "10 to 100 nM"),
    ("NS(=O)(=O)OC[C@H]1C[C@@H](Nc2ncncc2C(=O)c2cc([C@@H]3OCCc4ccc(Cl)cc43)c(C(F)F)s2)C[C@@H]1O", "< 10 nM"),
    ("Cc1sc(C(=O)c2cncnc2N[C@@H]2C[C@H](COS(N)(=O)=O)[C@@H](O)C2)cc1[C@@H]1SCc2ccc(Cl)cc21 (mixture of isomers) [I-359a]", "10 to 100 nM"),
    ("NS(=O)(=O)OC[C@H]1C[C@@H](Nc2ncncc2C(=O)c2cc([C@@H]3OCC(F)(F)c4ccccc43)cs2)C[C@@H]1O (single isomer, unassigned) [I-293b]", "< 10 nM"),
]

----------
Listed compounds paired with reported IC50
target: recombinant human SAE enzyme (Homo sapiens (Human), UniProt Q9UBT2); assay: SAE HTRF enzyme assay; format: biochemical; conditions: class symbols A/B/C

# Compound, IC50
records = [
    ("NS(=O)(=O)OC[C@H]1C[C@@H](Nc2ncncc2C(=O)c2cc(Sc3cccc(Cl)c3)c(Cl)s2)C[C@@H]1O", "10 to 100 nM"),
    ("NS(=O)(=O)OC[C@H]1C[C@@H](Nc2ncncc2C(=O)c2cc([C@@]3(c4ccccc4)CCCO3)cs2)C[C@@H]1O (single isomer, unassigned) [I-32b]", "10 to 100 nM"),
    ("Cc1sc(C(=O)c2cncnc2N[C@@H]2C[C@H](COS(N)(=O)=O)[C@@H](O)C2)cc1[C@@H]1OCCc2ccc(Cl)cc21 [I-257b]", "< 10 nM"),
    ("NS(=O)(=O)OC[C@H]1C[C@@H](Nc2ncncc2C(=O)c2cc([C@@H]3OCCc4ccc(Br)cc43)cs2)C[C@@H]1O.NS(=O)(=O)OC[C@H]1C[C@@H](Nc2ncncc2C(=O)c2cc([C@H]3OCCc4ccc(Br)cc43)cs2)C[C@@H]1O (mixture of isomers)", "< 10 nM"),
    ("NS(=O)(=O)OC[C@H]1C[C@@H](Nc2ncncc2C(=O)c2cc([C@@H]3NCCc4ccc(Br)cc43)c(Cl)s2)[C@H](O)[C@@H]1O (mixture of isomers) [I-259]", "< 10 nM"),
]

----------
molecular target: recombinant human SAE enzyme (Homo sapiens (Human), UniProt Q9UBT2); assay: SAE HTRF enzyme assay; type: biochemical; conditions: Concentration 0.111 μM

# Compound, Percent Inhibition
records = [
    ("NS(=O)(=O)OC[C@H]1C[C@@H](Nc2ncncc2C(=O)c2cc([C@H](O)c3cccc(Cl)c3)co2)C[C@@H]1O (single isomer, unassigned) [I-42b]", 99),
    ("NS(=O)(=O)OC[C@H]1C[C@@H](Nc2ncncc2C(=O)c2cc(C3SCCc4ccc(Cl)cc43)cs2)[C@H](O)[C@@H]1O (single isomer, unassigned) [I-278a]", 77),
    ("NS(=O)(=O)OC[C@H]1C[C@@H](Nc2ncncc2C(=O)c2cc([C@@H]3OCCc4ccc(F)cc43)cs2)C[C@@H]1O (single isomer, unassigned) [I-267]", 97),
    ("NS(=O)(=O)OC[C@H]1C[C@@H](Nc2ncncc2C(=O)c2cc([C@@]3(c4ccccc4)CCCO3)cs2)C[C@@H]1O (single isomer, unassigned) [I-32b]", 90),
    ("NS(=O)(=O)OCC1CC(Nc2ncncc2C(=O)c2cc(C(O)c3cccc(Cl)n3)cs2)CC1O (mixture of isomers) [I-29]", 100),
    ("NS(=O)(=O)OC[C@H]1C[C@@H](Nc2ncncc2C(=O)c2cc([C@@H]3OCCc4ccc(F)cc43)cs2)C[C@@H]1O (single isomer, unassigned) [I-267b]", 100),
    ("NS(=O)(=O)OC[C@H]1C[C@@H](Nc2ncncc2C(=O)c2cc([C@H](O)c3cccc(Cl)n3)c(Cl)s2)C[C@@H]1O (single isomer, unassigned) [I-2b]", 61),
    ("NS(=O)(=O)OC[C@H]1C[C@@H](Nc2ncncc2C(=O)c2cc([C@@H]3NCCc4ccc(Cl)cc43)cs2)C[C@@H]1O (mixture of isomers) [I-274]", 100),
    ("Cc1oc(C(=O)c2cncnc2N[C@@H]2C[C@H](COS(N)(=O)=O)[C@@H](O)C2)cc1C1OCCc2ccccc21 (single isomer, unassigned) [I-272a]", 96),
    ("N[C@H](c1cccc(Cl)c1)c1csc(C(=O)c2cncnc2N[C@@H]2C[C@H](COS(N)(=O)=O)[C@@H](O)C2)c1 (single isomer, unassigned) [I-36a]", 100),
]
